Value source: ChEMBL document CHEMBL4014325

Experiment summary: Stability of compound in aqueous solution at 100 uM after 2 days by ESI-LCMS analysis
Assay type: physicochemical
Test context: read-out: Stability
Readout name: remaining at 48 h, 100 µM (%)
Answers are plain numbers, in %.

# input Look up and report measured remaining at 48 h, 100 µM for this entry: "Cc1ccccc1NC(=O)c1c(NC(=O)C(F)(F)Br)sc2c1CCCCC2"
# output 30

====

Experiment summary: Cytotoxicity against human HT-29 cells assessed as cell survival at 5 uM after 8 hrs by alamar blue assay relative to control
Assay type: cell-based
Test context: read-out: Survival
Readout name: viability at 8 h, 5 µM (%)
Give bare numbers, in %.

Some compounds with recorded viability at 8 h, 5 µM:
# input Retrieve viability at 8 h, 5 µM measured for "Cc1ccccc1NC(=O)c1c(NC(=O)C(F)(F)Cl)sc2c1CCCCC2" and print it.
# output 98

# input For the compound "Cc1ccccc1NC(=O)c1c(NC(=O)C(F)(F)Br)sc2c1CCCCC2" , give its reported viability at 8 h, 5 µM.
# output 97

// for each compound below, give its viability at 8 h, 5 µM
1. Cc1ccccc1NC(=O)c1c(NC(=O)C(F)(F)I)sc2c1CCCCC2
2. CCc1c(C)nc(SCC(=O)Nc2nc(-c3ccc(OC)cc3)cs2)nc1O
3. COc1cc(Nc2ccc([N+](=O)[O-])cc2C(=O)O)cc2ccccc12

# output
1. 96
2. 97
3. 100

# input Look up viability at 8 h, 5 µM of "Cc1ccccc1NC(=O)c1c(NC(=O)C(F)(F)F)sc2c1CCCCC2" and report it.
# output 99

====

For each of the compounds below, state its IC50.
Experiment summary: Inhibition of calcium activated chloride channel in ATP-activated human HT-29 cells expressing YFP-H148Q/152L assessed as reduction in iodide influx preincubated for 10 mins followed by ATP addition by fluorescence assay

# input Please give the documented IC50 of "Cc1ccccc1NC(=O)c1c(NC(=O)C(F)(F)F)sc2c1CCCCC2"
# output 4 µM

Continuing:
# input In one line, give reported IC50 of the entry "COc1cc(Nc2ccc([N+](=O)[O-])cc2C(=O)O)cc2ccccc12" .
# output > 20 µM

====

Experiment summary: Metabolic stability in rat liver microsomes assessed as compound remaining in presence of NADPH at 10 uM after 180 mins by LC/MS analysis
Format: ADME, microsome
Test context: read-out: Stability
Readout name: remaining at 3 h, 10 µM (%)
One number for each entry, in %.

# input Please report remaining at 3 h, 10 µM for the following compound: "Cc1ccccc1NC(=O)c1c(NC(=O)C(F)(F)Br)sc2c1CCCCC2"
# output 30

====

Target system: Anoctamin-2 (Homo sapiens, UniProt Q9NQ90)
Sequence (Q9NQ90 as listed by the source): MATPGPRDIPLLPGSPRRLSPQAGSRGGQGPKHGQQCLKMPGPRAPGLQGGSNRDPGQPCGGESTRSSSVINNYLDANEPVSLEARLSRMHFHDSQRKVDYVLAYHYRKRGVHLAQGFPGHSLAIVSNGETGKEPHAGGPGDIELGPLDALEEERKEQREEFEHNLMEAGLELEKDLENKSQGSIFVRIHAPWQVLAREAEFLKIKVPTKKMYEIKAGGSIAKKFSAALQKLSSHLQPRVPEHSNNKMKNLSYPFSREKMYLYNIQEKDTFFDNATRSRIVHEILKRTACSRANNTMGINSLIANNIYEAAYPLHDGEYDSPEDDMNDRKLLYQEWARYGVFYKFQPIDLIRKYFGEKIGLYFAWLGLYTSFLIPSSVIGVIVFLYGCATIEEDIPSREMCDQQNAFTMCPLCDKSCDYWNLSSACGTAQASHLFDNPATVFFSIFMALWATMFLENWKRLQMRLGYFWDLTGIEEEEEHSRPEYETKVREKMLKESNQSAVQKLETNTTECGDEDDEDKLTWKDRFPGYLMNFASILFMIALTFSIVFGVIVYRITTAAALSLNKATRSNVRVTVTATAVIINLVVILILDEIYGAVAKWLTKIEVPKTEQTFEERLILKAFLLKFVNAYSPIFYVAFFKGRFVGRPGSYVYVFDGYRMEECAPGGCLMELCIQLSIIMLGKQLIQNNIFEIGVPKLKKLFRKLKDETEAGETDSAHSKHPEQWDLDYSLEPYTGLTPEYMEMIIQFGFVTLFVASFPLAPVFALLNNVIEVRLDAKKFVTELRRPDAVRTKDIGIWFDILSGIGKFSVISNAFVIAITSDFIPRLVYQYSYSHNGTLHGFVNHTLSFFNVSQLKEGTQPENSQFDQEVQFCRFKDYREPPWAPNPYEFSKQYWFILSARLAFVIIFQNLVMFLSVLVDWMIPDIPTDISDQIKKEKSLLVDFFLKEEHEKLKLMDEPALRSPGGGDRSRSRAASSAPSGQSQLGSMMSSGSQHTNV
Experiment summary: Inhibition of human TMEM16B expressed in FRT cells co-expressing iodide sensitive fluorescent protein YFP-H148Q/I152L/F46L assessed as reduction in ATP-induced Ca2+ activation-mediated chloride current by measuring decrease in iodide influx preincubated for 10 mins followed by ATP/iodide addition by fluorescence assay
Format: cell-based
Readout name: pIC50
Give bare numbers, as −log10 of the molar value.

# input Could you please provide reported pIC50 for "COc1cc(Nc2ccc([N+](=O)[O-])cc2C(=O)O)cc2ccccc12" ? Thanks!
# output 4.89

====

Target system: UniProt:Q5XXA6
Experiment summary: Inhibition of human TMEM16A expressed in FRT cells co-expressing iodide sensitive fluorescent protein YFP-H148Q/I152L/F46L assessed as reduction in ATP-induced Ca2+ activation-mediated chloride current by measuring decrease in iodide influx preincubated for 10 mins followed by ATP/iodide addition by fluorescence assay
Format: cell-based
Readout name: IC50

# input Provide IC50 value for the following molecule: "CCC(=O)Nc1sc2c(c1C(=O)Nc1ccccc1C)CCCCC2"
# output > 20 µM

Next:
# input Note down IC50 recorded for "CCC(=O)Nc1sc2c(c1C(=O)Nc1ccccc1OC(F)(F)F)CCCCC2"
# output > 20 µM

====

Target system: Anoctamin-1 (Homo sapiens, UniProt Q5XXA6)
Sequence (Q5XXA6 whole entry): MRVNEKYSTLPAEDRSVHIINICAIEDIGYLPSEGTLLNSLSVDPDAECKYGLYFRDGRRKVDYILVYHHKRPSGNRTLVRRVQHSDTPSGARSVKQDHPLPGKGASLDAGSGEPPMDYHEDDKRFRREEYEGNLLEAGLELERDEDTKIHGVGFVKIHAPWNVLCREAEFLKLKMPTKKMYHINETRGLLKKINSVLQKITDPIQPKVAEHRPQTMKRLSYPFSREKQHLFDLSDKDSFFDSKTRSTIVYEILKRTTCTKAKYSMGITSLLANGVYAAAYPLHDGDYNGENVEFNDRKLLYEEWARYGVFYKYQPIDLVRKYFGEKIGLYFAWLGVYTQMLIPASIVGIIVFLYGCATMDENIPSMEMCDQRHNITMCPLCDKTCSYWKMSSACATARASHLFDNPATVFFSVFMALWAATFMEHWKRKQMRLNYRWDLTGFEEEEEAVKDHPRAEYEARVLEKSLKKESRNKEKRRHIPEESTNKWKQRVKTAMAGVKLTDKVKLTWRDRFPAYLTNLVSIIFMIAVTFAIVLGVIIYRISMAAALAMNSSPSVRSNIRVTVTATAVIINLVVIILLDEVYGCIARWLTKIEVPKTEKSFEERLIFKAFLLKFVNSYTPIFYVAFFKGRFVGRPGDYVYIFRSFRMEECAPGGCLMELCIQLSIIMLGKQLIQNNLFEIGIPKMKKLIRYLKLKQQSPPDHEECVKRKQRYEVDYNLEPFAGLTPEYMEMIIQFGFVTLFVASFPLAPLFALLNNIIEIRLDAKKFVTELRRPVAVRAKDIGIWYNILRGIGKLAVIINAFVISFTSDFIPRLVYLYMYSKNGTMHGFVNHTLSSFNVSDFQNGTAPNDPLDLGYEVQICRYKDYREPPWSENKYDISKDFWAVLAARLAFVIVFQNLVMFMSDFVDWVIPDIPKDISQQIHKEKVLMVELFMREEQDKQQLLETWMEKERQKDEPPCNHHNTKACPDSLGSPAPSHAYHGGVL
Experiment summary: Inhibition of TMEM16A (unknown origin) expressed in Xenopus laevis oocytes at -60 mV holding potential by voltage-clamp assay
Readout name: pIC50
One number for each entry, as −log10 of the molar value.

# input Indicate the recorded pIC50 value for this molecule: "COc1cc(Nc2ccc([N+](=O)[O-])cc2C(=O)O)cc2ccccc12"
# output 7.10

====

Target system: Anoctamin-2 (Homo sapiens)
Experiment summary: Inhibition of TMEM16B (unknown origin) expressed in FRT cells assessed as reduction of ATP-induced chloride conductance preincubated for 20 mins followed by ATP addition by short-circuit current assay
Format: cell-based
Readout name: pIC50
Give bare numbers, as −log10 of the molar value.

# input Tell me its pIC50 given "CCc1c(C)nc(SCC(=O)Nc2nc(-c3ccc(OC)cc3)cs2)nc1O" as the entry.
# output 5.40

====

Target system: Anoctamin-1 (Homo sapiens)
Experiment summary: Inhibition of human TMEM16A expressed in FRT cells assessed as reduction of ATP-induced in chloride conductance preincubated for 5 mins followed by ATP addition by short-circuit current assay
Assay type: cell-based
I'd be grateful if you could share measured pIC50 for these entries.
One number for each entry, as −log10 of the molar value.

# input Using the record for "CCc1c(C)nc(SCC(=O)Nc2nc(-c3ccc(OC)cc3)cs2)nc1O" , state its measured pIC50.
# output 6.00

Consider now this further molecule.
# input Fill in pIC50 for record "COc1cc(Nc2ccc([N+](=O)[O-])cc2C(=O)O)cc2ccccc12"
# output 5.80
